System: MDA-MB-231
METHOD NOTES: NCI tumour cell line growth inhibition, 48 h
The source made the active and inactive calls. Rule as the data show it: active = GI50 up to about 1.1 µM and inactive = higher.
Give one outcome, nothing more. List: 1 for active, 0 for inactive

Problem: Query: recorded result category for "COc1ccc(CNc2nc3ccccc3nc2C(=O)O)cc1OC" in this test
Result: 0

Problem: For "Cn1c(=O)c2c(no[n+]2[O-])n(C)c1=O" then?
Result: 0

Problem: For "CCn1cc(C(=O)O)c(=O)c2cc(F)c(N3CCN(CN4C(=O)/C(=N\c5ncc(Cc6cc(OC)c(OC)c(OC)c6)c(N)n5)c5cc(Cl)ccc54)CC3)cc21" then?
Result: 0

Problem: For CCC1(O)CC(OC2CC(N(C)C)C(OC3CC(O)C(OC4OC(C)C(=O)C=C4N)C(C)O3)C(C)O2)c2c(cc3c(c2O)C(=O)c2c(O)cccc2C3=O)C1C(=O)OC (stereo not given) then?
Result: 1

Problem: For CC(=O)Nc1cc(/C=C\C(=O)N2CC(CCl)c3c2cc(N)c2ccccc32)n(C)n1 (stereo not given) then?
Result: 1

Problem: For "COc1ccc([C@H]2CC(=O)C[C@H](c3ccc(OC)cc3OC)C23C(=O)c2ccccc2C3=O)c(OC)c1" then?
Result: 0

Problem: For "O=c1n(-c2ccccc2)c(=O)n2n1C1C=CC2CCCCCC1" then?
Result: 0

Problem: For "S=C(Nc1cc(Cl)c(Cl)cc1Cl)SCc1ccccc1" then?
Result: 0

Problem: For "COc1c(C)c(C/C=C(\C)CC/C=C(\C)CC/C=C(\C)CCC=C(C)C)c(OC)c(OC)c1OC" then?
Result: 0

Problem: For "CN(C)c1ccc(/C=C2\N=C(c3ccccc3)N(c3nc4ccc(Sc5ccccc5)cc4[nH]3)C2=O)cc1" then?
Result: 0

Problem: For "O=C1c2c(ccc3c2CCCC3)CC12Cc1ccccc1C2" then?
Result: 0

Problem: For "O=S(=O)(O)CCSSCCS(=O)(=O)O" then?
Result: 0

Problem: For "CCOC(=O)/C=C(\C(=O)OCC)n1ccc(=O)n(Cc2cn(CCCCOC(C)=O)nn2)c1=O" then?
Result: 0

Problem: For "O=C(O)CCc1nc2cc3ccccc3cc2[nH]c1=O" then?
Result: 0

Problem: For "O=C(CCN1CCOCC1)Nc1ccc2sc3ccccc3c(=O)c2n1" then?
Result: 0

Problem: For "Cc1ccc(S(=O)(=O)NC(=O)NCCc2c[nH]cn2)cc1" then?
Result: 0

Problem: For "Cc1ccc(C(=O)c2[nH]c(Nc3cc(C)ccn3)c(C(=S)Nc3ccccc3)c2N)cc1" then?
Result: 0

Problem: For "CS(=O)(=O)c1nc(-c2cc3c(c(S(C)(=O)=O)n2)CCC3)cc2c1CCCCC2" then?
Result: 0

Problem: For "C=CCSc1nn(CC=C)cc2ncnc1-2" then?
Result: 0

* * *

System: SF-539
METHOD NOTES: NCI tumour cell line growth inhibition, 48 h
Active and inactive are the calls of the source. Cut-off read from the data, not from the text of the source: active = GI50 up to about 1.1 µM and inactive = higher.
Give one outcome, nothing more. List: active, inactive

Past entries and their recorded results:
COMPOUND: C=C(NC(=O)C(=C)NC(=O)c1csc(C2=NC3c4csc(n4)C4NC(=O)c5csc(n5)C(C(C)(O)C(C)O)NC(=O)C5CSC(=N5)/C(=C/C)NC(=O)C(C(C)O)NC(=O)c5csc(n5)C3(CC2)NC(=O)C(C)NC(=O)C(=C)NC(=O)C(=C)NC(=O)C(C(C)C)NC2C=Cc3c(C(C)O)cc(nc3C2O)C(=O)OC4C)n1)C(N)=O (stereo not given)
MEASUREMENT TARGET: SF-539
CLASS NAME: active
//
COMPOUND: O=P(Nc1cccc(Cl)c1)(Oc1ccccc1)N(CCCl)CCCl (stereo not given)
MEASUREMENT TARGET: SF-539
CLASS NAME: inactive
//
COMPOUND: Cc1ccccc1-n1c(=O)c2ncn(CCCl)c2n(-c2ccccc2C)c1=S
MEASUREMENT TARGET: SF-539
CLASS NAME: inactive
//
COMPOUND: Cc1nc2ccc(Cl)cc2c(-n2ccnc2)c1CCn1ccnc1
MEASUREMENT TARGET: SF-539
CLASS NAME: inactive
//
COMPOUND: CN1CCN(c2ccc3[nH]c(-c4ccc5[nH]c(-c6ccc(O)cc6)nc5c4)nc3c2)CC1
MEASUREMENT TARGET: SF-539
CLASS NAME: inactive

Problem: Query: recorded result category for O=C1Nc2ccccc2/C1=C1/Nc2ccccc2/C1=N\OCCNCC(O)C(O)C(O)C(O)CO (stereo not given) in this test
Result: inactive

Problem: For "Clc1cc(Br)c2c3c(c(Br)cc(Cl)c13)C(Br)=C2Br" then?
Result: inactive

Problem: For "COc1ccc(CNc2nc3ccccc3nc2C(=O)O)cc1OC" then?
Result: inactive
